target: recombinant Mtb-DapA (Mtb-rDapA) (Mycobacterium tuberculosis); experiment: biochemical; conditions: IC50 of α-KPA, pyruvate 0.3 mM, ASA 400 μM, 10 min from start
Sequence (P9WP25 whole entry, looked up): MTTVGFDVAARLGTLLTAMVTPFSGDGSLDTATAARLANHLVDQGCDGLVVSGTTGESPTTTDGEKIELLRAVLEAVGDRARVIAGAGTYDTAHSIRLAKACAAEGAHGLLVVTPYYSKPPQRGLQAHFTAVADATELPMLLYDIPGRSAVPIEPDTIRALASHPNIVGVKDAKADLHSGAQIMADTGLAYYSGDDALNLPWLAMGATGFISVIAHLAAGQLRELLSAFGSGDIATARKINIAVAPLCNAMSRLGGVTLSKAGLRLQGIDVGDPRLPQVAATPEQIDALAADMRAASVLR
metric_name: pIC50
Interpret pIC50 as the negative base-10 log of the concentration measured in mol/L.

Value of pIC50 reported for the compound `O=C(O)CCCCC(=O)C(=O)O` is 4.68

---

molecular target: recombinant Mtb-DapA (Mtb-rDapA) (Mycobacterium tuberculosis); test: biochemical; conditions: IC50 of α-KPA, pyruvate 0.3 mM, ASA 400 μM, 20 min from start
metric_name: IC50 (µM)
Number in µM, nothing else.

Value of IC50 reported for the compound `O=C(O)CCCCC(=O)C(=O)O` is 21
